Values from the supplement of paper PMC7595190

# Test system: CMK
# procedure.details: CellTox Green cytotoxicity fluorescence relative to DMSO vehicle (fold of vehicle RFU); higher = more cell death (loss of membrane integrity), active = 2 or more
# condition.set: 0.1 µM; 24 h
Listed molecules paired with reported CellTox Green cytotoxicity fluorescence
Lab note: write the figure by itself, no unit.

# example entries with known answers
INSERT INTO results (molecule, assay_target, value_reported) VALUES
  ('N#CC(=Cc1ccc(-c2cc(Cl)ccc2Cl)o1)C(=O)Nc1cccc2ncccc12', 'CMK', 0.993),
  ('CC(=NNC(=S)N1CCC1)c1ccccn1', 'CMK', 0.922),
  ('CCO[C@@H]1OC(=O)C[C@@H]1NC(=O)[C@@H]1CCCN1C(=O)[C@@H](NC(=O)c1ccc(N)c(Cl)c1)C(C)(C)C', 'CMK', 0.971),
  ('Nc1cccc2c1C(=O)N(C1CCC(=O)NC1=O)C2=O (stereo not drawn) [Pomalidomide]', 'CMK', 1.01);

INPUT: Dear colleague, I am looking for the recorded CellTox Green cytotoxicity fluorescence of the following molecule: COc1cccc(-n2c(=O)[nH]c3cc(Cl)n(-c4ccc(-c5cccc(OC)c5O)cc4)c3c2=O)c1
OUTPUT: 0.996

INPUT: CellTox Green cytotoxicity fluorescence for CN(C)CC[C@H](CSc1ccccc1)Nc1ccc(S(=O)(=O)NC(=O)c2ccc(N3CCN(Cc4ccccc4-c4ccc(Cl)cc4)CC3)cc2)cc1[N+](=O)[O-] ?
OUTPUT: 0.982

INPUT: Which CellTox Green cytotoxicity fluorescence reading was recorded for the molecule Cc1c(C(=O)Nc2ccc(Oc3ccnc4[nH]cc(-c5ccccc5)c34)c(F)c2)c(=O)n(-c2ccc(F)cc2)n1C ?
OUTPUT: 0.997

INPUT: Would you kindly share the measured CellTox Green cytotoxicity fluorescence for O=C1CCC(N2C(=O)c3ccccc3C2=O)C(=O)N1 (stereo not drawn) [Thalidomide] ?
OUTPUT: 0.945
